Please provide measured pIC50 for the entries that follow.
System: SK-MEL-2
procedure-details: Cytotoxicity against human SK-MEL-2 cells after 72 hrs by alamar blue assay
Format: functional, cell-based
test-context: SK-MEL-2, 72 h
Remember, pIC50 is on a log scale: it is -log10 of the molar concentration.

[Q] Which pIC50 value belongs to CC[C@@]1(O)C(=O)OCc2c1cc1n(c2=O)Cc2cc3c(CN(C)C)c(O)ccc3nc2-1 ?
[A] 6.85

[Q] Which pIC50 value belongs to CCc1c2c(nc3ccccc13)-c1c(N)c3c(c(=O)n1C2)COC(=O)[C@]3(O)CC ?
[A] 6.89

[Q] Which pIC50 value belongs to CC[C@@]1(O)C(=O)OCc2c1c(N)c1n(c2=O)Cc2cc3ccccc3nc2-1 ?
[A] 6.77

[Q] Which pIC50 value belongs to CCc1c2c(nc3ccc(OC(=O)N4CCC(N5CCCCC5)CC4)cc13)-c1cc3c(c(=O)n1C2)COC(=O)[C@]3(O)CC ?
[A] 7.00

====

System: Malme-3M
procedure-details: Cytotoxicity against human MALME-3M cells after 72 hrs by alamar blue assay
Type: functional, cell-based
Please provide measured pIC50 for the entries that follow.
Remember, pIC50 is on a log scale: it is -log10 of the molar concentration.

[Q] Which pIC50 value belongs to CC[C@@]1(O)C(=O)OCc2c1c(N)c1n(c2=O)Cc2cc3ccccc3nc2-1 ?
[A] 6.11

[Q] Which pIC50 value belongs to CC[C@@]1(O)C(=O)OCc2c1cc1n(c2=O)Cc2cc3c(CN(C)C)c(O)ccc3nc2-1 [TOPOTECAN] ?
[A] 6.00

[Q] Which pIC50 value belongs to CCc1c2c(nc3ccc(OC(=O)N4CCC(N5CCCCC5)CC4)cc13)-c1cc3c(c(=O)n1C2)COC(=O)[C@]3(O)CC [IRINOTECAN] ?
[A] 6.70

[Q] Which pIC50 value belongs to CCc1c2c(nc3ccccc13)-c1c(N)c3c(c(=O)n1C2)COC(=O)[C@]3(O)CC ?
[A] 5.92

====

Please provide measured half-life for the entries that follow.
procedure-details: Half life in CD-1 mouse brain at 50 mg/kg, ip by LC/MS/MS analysis
Type: ADME, organism-based
Design: dose 50 mg/kg, route intraperitoneal

[Q] Which half-life value belongs to CCc1c2c(nc3ccccc13)-c1c(N)c3c(c(=O)n1C2)COC(=O)[C@]3(O)CC ?
[A] 4 h

[Q] Which half-life value belongs to CC[C@@]1(O)C(=O)OCc2c1c(N)c1n(c2=O)Cc2cc3ccccc3nc2-1 ?
[A] 3.5 h

====

System: HT-29
procedure-details: Cytotoxicity against human HT-29 cells after 72 hrs by alamar blue assay
Type: functional, cell-based
test-context: HT-29, 72 h
Please provide measured pIC50 for the entries that follow.
Remember, pIC50 is on a log scale: it is -log10 of the molar concentration.

[Q] Lookup: pIC50 / HT-29 / CC[C@@]1(O)C(=O)OCc2c1c(N)c1n(c2=O)Cc2cc3ccccc3nc2-1
[A] 6.64

[Q] Lookup: pIC50 / HT-29 / CC[C@@]1(O)C(=O)OCc2c1cc1n(c2=O)Cc2cc3ccccc3nc2-1 [CAMPTOTHECIN]
[A] 6.59

[Q] Lookup: pIC50 / HT-29 / CCc1c2c(nc3ccc(OC(=O)N4CCC(N5CCCCC5)CC4)cc13)-c1cc3c(c(=O)n1C2)COC(=O)[C@]3(O)CC [IRINOTECAN]
[A] 6.66

[Q] Lookup: pIC50 / HT-29 / CCc1c2c(nc3ccccc13)-c1c(N)c3c(c(=O)n1C2)COC(=O)[C@]3(O)CC
[A] 6.52
